Value source: patent US8106055B2

# target or test system: human bradykinin 1 receptor (B1R) (Homo sapiens, UniProt P46663)
# Construct: expressed in transfected cells; host or cells: CHO K1 cells
# Sequence (P46663 whole entry): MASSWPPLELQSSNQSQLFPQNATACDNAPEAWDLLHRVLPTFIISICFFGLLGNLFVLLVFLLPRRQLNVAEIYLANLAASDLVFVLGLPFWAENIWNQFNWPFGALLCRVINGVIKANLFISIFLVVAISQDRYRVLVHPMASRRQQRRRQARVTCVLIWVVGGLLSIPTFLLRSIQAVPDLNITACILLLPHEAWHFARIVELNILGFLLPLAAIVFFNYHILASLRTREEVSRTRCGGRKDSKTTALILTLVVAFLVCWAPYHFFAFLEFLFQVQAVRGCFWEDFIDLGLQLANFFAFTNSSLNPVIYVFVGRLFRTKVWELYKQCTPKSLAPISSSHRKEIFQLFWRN
# test details: Functional investigation on the human bradykinin 1 receptor (B1R), Ca2+ FLIPR assay in CHO K1 hB1R cells
# Type: cell-based
# condition info: CHO-K1, B1R antagonism human; test substance 10 μM; Ca2+ FLIPR, CHO K1 hB1R cells; read-out: B1R Ant. h [10 μM] % Inhibition
Decide by inhibition at 10 µM: equal to or exceeding 40% means Fulfilled, less means Not fulfilled.

| molecule | label value |
| --- | --- |
| CN(CCOCC(=O)NC1CCC(C(c2ccccc2)N2CCCC2)CC1)S(=O)(=O)c1c(Cl)cccc1Cl (stereo not shown) | Fulfilled |
| COc1cc(C)c(S(=O)(=O)N2CCC(OCC(=O)NCCC3CCC(C(c4cccs4)N(C)C)CC3)C2)c(C)c1C (stereo not shown) | Fulfilled |
| CN(C)C(c1cccs1)C1CCC(NC(=O)CNC(=O)c2nc(-c3ccc(C(C)(C)C)cc3)no2)CC1 (stereo not shown) | Not fulfilled |
| CN(C)C(c1cccs1)C1CCC(CNC(=O)COCCN(C)S(=O)(=O)c2ccc(Cl)cc2Cl)CC1 (stereo not shown) | Fulfilled |

Please tell me: is the molecule Cc1ccc(S(=O)(=O)N2CCC(OCC(=O)NCC3CCC(C(c4cccc(F)c4)N(C)C)CC3)C2)cc1 (stereo not shown) at or over 40% in terms of inhibition at 10 µM?
Not fulfilled
